# System: Mannheimia haemolytica
# assay.protocol: minimum inhibitory concentration (MIC)
# particulars: isolate (source animal id): 126
For each of the compounds below, state its minimum inhibitory concentration.
Write the answer as a number in µg/mL, unit excluded.

Please look up its minimum inhibitory concentration: CCCNC[C@]1(O)[C@H](C)O[C@@H](O[C@H]2[C@H](C)[C@@H](O[C@@H]3O[C@H](C)C[C@H](N(C)C)[C@H]3O)[C@](C)(O)C[C@@H](C)CN[C@H](C)[C@@H](O)[C@](C)(O)[C@@H](CC)OC(=O)[C@@H]2C)C[C@@]1(C)OC 64

Query: minimum inhibitory concentration; subject: CNC(C)C1CCC(N)C(OC2C(N)CC(N)C(OC3OCC(C)(O)C(NC)C3O)C2O)O1 (stereo not given) 4

Return reported minimum inhibitory concentration; argument: CN(C)[C@@H]1C(O)=C(C(N)=O)C(=O)[C@@]2(O)C(O)=C3C(=O)c4c(O)cccc4[C@@](C)(O)[C@H]3C[C@@H]12 4

----------
# Tested on: Pasteurella multocida
# assay.protocol: minimum inhibitory concentration (MIC)
# particulars: isolate (source animal id): 196
experimental.readout: minimum inhibitory concentration

Please provide the recorded minimum inhibitory concentration for CC[C@H]1OC(=O)C[C@@H](O)[C@H](C)[C@@H](O[C@@H]2O[C@H](C)[C@@H](O[C@H]3C[C@@](C)(O)[C@@H](O)[C@H](C)O3)[C@H](N(C)C)[C@H]2O)[C@@H](CC=O)C[C@@H](C)C(=O)/C=C/C(C)=C/[C@@H]1CO[C@@H]1O[C@H](C)[C@@H](O)[C@@H](OC)[C@H]1OC , tested on Pasteurella multocida. > 32 µg/mL

Provide the documented minimum inhibitory concentration with Pasteurella multocida as the system for CCC[C@@H]1C[C@@H](C(=O)N[C@@H]([C@H]2O[C@H](SC)[C@H](O)[C@@H](O)[C@H]2O)[C@H](C)Cl)N(C)C1 > 16 µg/mL

minimum inhibitory concentration of CN1C[C@@H]2C[C@H]1CN2c1cc2c(cc1F)c(=O)c(C(=O)O)cn2C1CC1 on Pasteurella multocida? ≤ 0.12 µg/mL

Provide value of minimum inhibitory concentration for this record tested with Pasteurella multocida: CC1(C)S[C@@H]2[C@H](NC(=O)Cc3ccccc3)C(=O)N2[C@H]1C(=O)O ≤ 0.12 µg/mL

Provide value of minimum inhibitory concentration for this record tested with Pasteurella multocida: CS(=O)(=O)c1ccc([C@@H](O)[C@@H](CF)NC(=O)C(Cl)Cl)cc1 0.5 µg/mL

Reported minimum inhibitory concentration for Pasteurella multocida, given CCCN1C[C@H](C)[C@@H](O)[C@](C)(O)[C@@H](CC)OC(=O)[C@H](C)[C@@H](O[C@H]2C[C@@](C)(OC)[C@@H](O)[C@H](C)O2)[C@H](C)[C@@H](O[C@@H]2O[C@H](C)C[C@H](N(C)C)[C@H]2O)[C@](C)(O)C[C@H]1C ? ≤ 1 µg/mL

----------
# Tested on: Pasteurella multocida
# assay.protocol: minimum inhibitory concentration (MIC)
# particulars: isolate (source animal id): 280
Please go through the items and note down their minimum inhibitory concentration.

Entry NC[C@@H]1O[C@H](O[C@H]2[C@@H](O)[C@H](O[C@@H]3[C@@H](O)[C@H](N)C[C@H](N)[C@H]3O[C@H]3O[C@H](CN)[C@@H](O)[C@H](O)[C@H]3N)O[C@@H]2CO)[C@H](N)[C@@H](O)[C@@H]1O has what minimum inhibitory concentration? > 32 µg/mL

I'd like to know its minimum inhibitory concentration. The compound in question is CCN1CCN(c2cc3c(cc2F)c(=O)c(C(=O)O)cn3C2CC2)CC1 0.5 µg/mL

# get_value(readout='minimum inhibitory concentration', item= CN1C[C@@H]2C[C@H]1CN2c1cc2c(cc1F)c(=O)c(C(=O)O)cn2C1CC1 ) > 1 µg/mL

Name the recorded minimum inhibitory concentration for CCC[C@@H]1C[C@@H](C(=O)N[C@@H]([C@H]2O[C@H](SC)[C@H](O)[C@@H](O)[C@H]2O)[C@H](C)Cl)N(C)C1 . > 16 µg/mL

Entry under review: CO/N=C(\C(=O)N[C@@H]1C(=O)N2C(C(=O)O)=C(CSC(=O)c3ccco3)CS[C@H]12)c1csc(N)n1 . Reported minimum inhibitory concentration? ≤ 0.25 µg/mL

# input compound: CC[C@H]1OC(=O)C[C@@H](O)[C@H](C)[C@@H](O[C@@H]2O[C@H](C)[C@@H](O[C@H]3C[C@@](C)(O)[C@@H](O)[C@H](C)O3)[C@H](N(C)C)[C@H]2O)[C@@H](CC=O)C[C@@H](C)C(=O)/C=C/C(C)=C/[C@@H]1CO[C@@H]1O[C@H](C)[C@@H](O)[C@@H](OC)[C@H]1OC ; wanted: its minimum inhibitory concentration > 32 µg/mL

The reported numbers originate from the supplement of paper PMC8612539.
